Data origin, for the record: the array DNA melting data of Ke et al. (doi:10.1101/2024.01.08.574731)

Assay: melting temperature; fluorescence melt of hairpins on a sequencing array, two-state fit, raised by 9.35 °C to match UV melts
Conditions: sodium 0.088 M
PROPERTY LABEL: Tm (°C)

[[record]]
seq_string = "GTAGTTGGAAACAACTGC (.(((((....))))).)"
measurement_unit = "°C"
obs_value = 47.6

[[record]]
seq_string = "GCATGTACGAAAGTATGC (((..(((....))))))"
measurement_unit = "°C"
obs_value = 43.8

[[record]]
seq_string = "GCAACAACGAAAGTTTGC (((..(((....))))))"
measurement_unit = "°C"
obs_value = 36.1

[[record]]
seq_string = "GCGTGCCTACGC ((((....))))"
measurement_unit = "°C"
obs_value = 57

[[record]]
seq_string = "GGATAGGGAAACTTATCC (((((.(....).)))))"
measurement_unit = "°C"
obs_value = 35.7

[[record]]
seq_string = "GATCACATGAGTGATC ((((((....))))))"
measurement_unit = "°C"
obs_value = 55.7

[[record]]
seq_string = "GCCATTGGAAACAACGGC (((.(((....))).)))"
measurement_unit = "°C"
obs_value = 43


====

Each record here notes measured Tm.
Assay: melting temperature; fluorescence melt of hairpins on a sequencing array, two-state fit, raised by 9.35 °C to match UV melts
Settings: sodium 0.088 M
PROPERTY LABEL: Tm (°C)

[[record]]
seq_string = "GTCAATCGAAAGATCGAC (((.(((....))).)))"
property_label = "Tm"
obs_value = 41.2

[[record]]
seq_string = "GGTCTCTCGAAAGAGACC (((..(((....))))))"
property_label = "Tm"
obs_value = 60.5

[[record]]
seq_string = "GCATAGGGAAACCTACGC ((.((((....)))).))"
property_label = "Tm"
obs_value = 35.9

[[record]]
seq_string = "GACGACGGAAACGTCACC (..((((....))))..)"
property_label = "Tm"
obs_value = 35.4

[[record]]
seq_string = "GCATACGAAAGTACCTGC ((((((....)))..)))"
property_label = "Tm"
obs_value = 26.6

[[record]]
seq_string = "GACCCCCGAAAGGGGTC (((.(((....))))))"
property_label = "Tm"
obs_value = 67.5

[[record]]
seq_string = "GCTATACGAAAGTAAGC (((.(((....))))))"
property_label = "Tm"
obs_value = 40.6

[[record]]
seq_string = "GCTCCTGGAAACAAGAGC ((((.((....)).))))"
property_label = "Tm"
obs_value = 34.8

[[record]]
seq_string = "CGGGCGGAAACGCGCCG ((((((....))).)))"
property_label = "Tm"
obs_value = 55.5

[[record]]
seq_string = "GGACCCGAAAGGGTGTCC ((((((....)))..)))"
property_label = "Tm"
obs_value = 47.1

[[record]]
seq_string = "GCTGCGCGAAAGCGATGC ((..(((....)))..))"
property_label = "Tm"
obs_value = 58

[[record]]
seq_string = "GATCCGGCATCGGATC ((((((....))))))"
property_label = "Tm"
obs_value = 64.8

[[record]]
seq_string = "GTCGTCGAAAGACAAGAC ((((((....)))..)))"
property_label = "Tm"
obs_value = 44.7

[[record]]
seq_string = "GGGATGGAAACATCCC ((((((....))))))"
property_label = "Tm"
obs_value = 60.7

[[record]]
seq_string = "GTGGTAGGAAACTACTGC (..((((....))))..)"
property_label = "Tm"
obs_value = 36.1

[[record]]
seq_string = "AGTATGAAAATACT (((((....)))))"
property_label = "Tm"
obs_value = 32

[[record]]
seq_string = "GATCCTCGGCAGGATC ((((((....))))))"
property_label = "Tm"
obs_value = 49.7

[[record]]
seq_string = "GGTACATCGAAAGATACC (((..(((....))))))"
property_label = "Tm"
obs_value = 29.7

[[record]]
seq_string = "GATCGACCTCTCGATC ((((((....))))))"
property_label = "Tm"
obs_value = 50

[[record]]
seq_string = "GAACGTGGAAACGCGTTC (((((.(....).)))))"
property_label = "Tm"
obs_value = 53.8

[[record]]
seq_string = "GTCGGAGCGAAAGCTGAC (((..(((....))))))"
property_label = "Tm"
obs_value = 44.3


====

Experiment: melting temperature; fluorescence melt of hairpins on a sequencing array, two-state fit, raised by 9.35 °C to match UV melts
Details: sodium 0.088 M
Just a reminder that ties go to n: only Tm strictly below 50 °C counts as y.

[[record]]
seq_string = "GGCTGCGCGAAAGCGGCC (((..(((....))))))"
cat = "n"

[[record]]
seq_string = "CAAGCAGAAATGGTTG (((.((....)).)))"
cat = "y"

[[record]]
seq_string = "GTTACGACGAAAGTCAAC (((..(((....))))))"
cat = "y"

[[record]]
seq_string = "GTAAACCGAAAGGTTAC (((.(((....))))))"
cat = "y"


====

Experiment: melting temperature; fluorescence melt of hairpins on a sequencing array, two-state fit, raised by 9.35 °C to match UV melts
Settings: sodium 0.088 M
PROPERTY LABEL: Tm (°C)

[[record]]
seq_string = "GTGCCACCGAAAGGTCAC (((..(((....))))))"
measurement_unit = "°C"
obs_value = 50.5

[[record]]
seq_string = "GGCCATCGAAAGATTGCC (((.(((....))).)))"
measurement_unit = "°C"
obs_value = 49.3

[[record]]
seq_string = "GCCCAGCGAAAGCTCGGC (((.(((....))).)))"
measurement_unit = "°C"
obs_value = 51.3


====

Assay: melting temperature; fluorescence melt of hairpins on a sequencing array, two-state fit, raised by 9.35 °C to match UV melts
Conditions: sodium 0.088 M
PROPERTY LABEL: Tm (°C)

[[record]]
seq_string = "GGCCACGAAAGTGCTGCC ((((((....)))..)))"
property_label = "Tm"
measurement_unit = "°C"
obs_value = 48.8

[[record]]
seq_string = "GGACAGGGAAACCCGTCC ((((.((....)).))))"
property_label = "Tm"
measurement_unit = "°C"
obs_value = 50.8

[[record]]
seq_string = "GTCGGCGGAAACGCTGGC (.(.(((....))).).)"
property_label = "Tm"
measurement_unit = "°C"
obs_value = 50.5


====

Test: folding enthalpy; higher = less favourable; fluorescence melt of hairpins on a sequencing array, two-state fit
Conditions: sodium 0.088 M
Could you label it T if measured folding enthalpy is -30 kcal/mol or higher, and F otherwise?

[[record]]
seq_string = "GCGATCCGAAAGGAACGC (((.(((....))).)))"
cat = "F"

[[record]]
seq_string = "GTAACCCGAAAGGGCTAC (((.(((....))).)))"
cat = "T"

[[record]]
seq_string = "GCCGTAGAAATACGGC ((((((....))))))"
cat = "F"

[[record]]
seq_string = "GTACTCGAAAGAGTTTAC ((((((....)))..)))"
cat = "T"

[[record]]
seq_string = "GCCTGGCCGAAAGGCGGC (((..(((....))))))"
cat = "T"


====

Assay: melting temperature; fluorescence melt of hairpins on a sequencing array, two-state fit, raised by 9.35 °C to match UV melts
Settings: sodium 0.088 M
Lab note: compare Tm against 50 °C. Equal or greater, write True. Smaller, write False.

[[record]]
seq_string = "GGCGCCCCGAAAGGGGCC (((..(((....))))))"
cat = "True"

[[record]]
seq_string = "GCGCCTCGAAAGAGACGC (((.(((....))).)))"
cat = "True"

[[record]]
seq_string = "GATCGTACTCACGATC ((((((....))))))"
cat = "True"

[[record]]
seq_string = "GTAATGTCGAAAGACTAC (((..(((....))))))"
cat = "False"

[[record]]
seq_string = "GATCCGGGTGCGGATC ((((((....))))))"
cat = "True"

[[record]]
seq_string = "GATCTAGATGTAGATC ((((((....))))))"
cat = "False"

[[record]]
seq_string = "GACGATCCGAAAGGAGTC (((..(((....))))))"
cat = "False"

[[record]]
seq_string = "GACTTAGGAAACTAAGTC (((((((....)))))))"
cat = "True"

[[record]]
seq_string = "GCAACCGGAAACGGTCAC (..((((....))))..)"
cat = "False"

[[record]]
seq_string = "GATGGGGGAAACCTCGTC ((.(.((....)).).))"
cat = "False"

[[record]]
seq_string = "GATCCTCAAGAGGATC ((((((....))))))"
cat = "True"

[[record]]
seq_string = "GATGAACCGAAAGGTATC (((..(((....))))))"
cat = "False"

[[record]]
seq_string = "GTTTAGGGAAACCTAAAC (((((((....)))))))"
cat = "True"

